target: Recombinant Human NF-kappaB-Inducing Kinase (NIK/MAP3K14) (Homo sapiens); assay: Biological Assay A2: inhibition of auto-phosphorylation of recombinant human NIK/MAP3K14 (AlphaScreen); type: biochemical; conditions: 25 microM ATP, 0.2 nM NIK/MAP3K14, 1 h at 25° C., averaged over all batches, read-out: Alpha-Screen IC50
metric.name: log10(IC50) (log10 of the value in nM)

- COCCCc1cn(-c2nc(N)ncc2F)c2cc(C#CC(C)(C)O)ncc12: 1.56
- [2H]C([2H])([2H])N1CCC(c2cn(-c3ccnc(N)n3)c3cc(C#CC(O)(C([2H])([2H])[2H])C([2H])([2H])[2H])ncc23)CC1: 1.54
- [2H]C([2H])([2H])C(O)(C#Cc1cc2c(cn1)c(C1CCN(Cc3ccccc3)CC1)cn2-c1ccnc(N)n1)C([2H])([2H])[2H]: 1.49
- CC(O)(C#Cc1cc2c(cn1)c(C1CCN(C3CC3)CC1)cn2-c1ccnc(N)n1)C1CC1 (stereo not shown): 1.85
- CC(C)(O)C#Cc1cc2c(cn1)c(CCCO)cn2-c1nc(N)ncc1F: 1.38
- CCCCOCc1cn(-c2ccnc(N)n2)c2cc(C#CC(C)(C)O)ncc12: 2.41
- CC(C)(O)C#Cc1cc2c(cn1)c(CCC#N)cn2-c1ccnc(N)n1: 1.08
- CN(C)C(=O)c1cn(-c2ccnc(N)n2)c2cc(C#CC(C)(C)O)ncc12: 2.26
- N#CCCc1cn(-c2ccnc(N)n2)c2cc(C#CC3(O)CCCC3)ncc12: 1.46
- COCc1cn(-c2ccnc(N)n2)c2cc(C#CC(C)(C)O)ncc12: 1.30
- CC(O)(C#Cc1cc2c(ccn2-c2nc(N)ncc2Cl)cn1)c1nccs1 (stereo not shown): 1.26
- CC(O)(C#Cc1cc2c(cn1)c(C1CCN(CCC(F)(F)F)CC1)cn2-c1ccnc(N)n1)C1CC1 (single isomer, unassigned) [Compound 51]: 1.11
- CC(C)(O)C#Cc1cc2c(cn1)c(CCO)cn2-c1ccnc(N)n1: 1.04
- CC(O)(C#Cc1cc2c(cn1)c(C1CCCN(CCC(F)(F)F)C1)cn2-c1nc(N)ncc1F)C1CC1 (stereo not shown): 2.36
- Nc1nccc(-n2ccc3cnc(C#CC4(O)CC4)cc32)n1: 0.75
- CC(C)(O)C#Cc1cc2c(cn1)c(C(N)=O)cn2-c1ccnc(N)n1: 2.27

====

We begin with a simple list: items and their reported pIC50.
test system: P-IKKα levels in L363 cells; assay: Biological Assay B: effect of compounds on P-IKKα levels in L363 cells; format: cell-based; conditions: Homo sapiens, L-363, BAFF stimulated, 2 hr treatment, averaged over all batches, read-out: IKKα Cellular IC50
pIC50: −log10 of the molar value.
metric.name: pIC50

* Nc1nccc(-n2ccc3cnc(C#CC4(O)CCCC4)cc32)n1 | 7.89
* Nc1ncc(F)c(-n2cc(CCCO)c3cnc(C#CC4(O)CCCC4)cc32)n1 | 7.42
* CC(O)(C#Cc1cc2c(ccn2-c2ccnc(N)n2)cn1)c1nccs1 (stereo not shown) | 7.74
* CCCCOCc1cn(-c2ccnc(N)n2)c2cc(C#CC(C)(C)O)ncc12 | 6.70
* Nc1ncc(Cl)c(-n2ccc3cnc(C#CC4(O)CCCC4)cc32)n1 | 7.00
* COCCc1cn(-c2ccnc(N)n2)c2cc(C#CC(C)(C)O)ncc12 | 7.32
* Nc1ncc(F)c(-n2ccc3cnc(C#CC4(O)CCCC4)cc32)n1 | 7.36
* CC(C)(O)C#Cc1cc2c(ccn2-c2ccnc(N)n2)cn1 | 7.89
* CN1CCC(c2cn(-c3nc(N)ncc3F)c3cc(C#CC(C)(C)O)ncc23)CC1 | 7.12
* CC(C)(O)C#Cc1cc2c(cn1)c(CCO)cn2-c1ccnc(N)n1 | 7.39

====

We begin with a simple list: items and their reported IC50.
Tested on: P-IKKα levels in L363 cells
Assay: Biological Assay B: effect of compounds on P-IKKα levels in L363 cells
Type: cell-based
Conditions: Homo sapiens, L-363, BAFF stimulated, 2 hr treatment, averaged over all batches, read-out: IKKα Cellular IC50
Procedure: Effect of Compounds on P-IKKα Levels in L363 Cells All compounds tested were dissolved in DMSO and further dilutions were made in culture medium. Final DMSO concentration was 1% (v/v) in cell assays. […] At the end of this incubation lysed cells were centrifuged at 800×g for 20 min at 4° C. and the lysate was assessed for P-IKKα levels by sandwich immuno-assay carried out in anti-rabbit antibody coated Mesoscale plates. […]
metric.name: IC50 (nM)

* CC(C)(O)CCc1cn(-c2nc(N)ncc2F)c2cc(C#CC3(O)CCCC3)ncc12 | 199
* CC(C)c1cn(-c2ccnc(N)n2)c2cc(C#CC(C)(C)O)ncc12 | 16
* CC(C)(O)C#Cc1cc2c(ccn2-c2nc(N)ncc2F)cn1 | 25
* CN1CCC(c2cn(-c3ccnc(N)n3)c3cc(C#CC(C)(C)O)ncc23)CC1 | 87
* CC(C)(O)CCc1cn(-c2ccnc(N)n2)c2cc(C#CC3(O)CCCC3)ncc12 | 154
* CC(O)(C#Cc1cc2c(ccn2-c2nc(N)ncc2Cl)cn1)c1nccs1 (stereo not drawn) | 89
* CC(C)(O)C#Cc1cc2c(ccn2-c2nc(N)ncc2Cl)cn1 | 163
* Cc1cnc(N)nc1-n1ccc2cnc(C#CC(C)(C)O)cc21 | 330
* CC(C)(O)C#Cc1cc2c(cn1)c(CCCO)cn2-c1ccnc(N)n1 | 28

====

test system: L-363 cells; test: Biological Assay C: antiproliferative activity on L-363 cells (CellTiter-Glo); type: cell-based; details: Homo sapiens, 72 hr treatment
metric.name: log10 EC50 (log10 of the value in nM)

* CC(C)(O)C#Cc1cc2c(ccn2-c2nc(N)ncc2F)cn1 | 2.12
* Nc1nccc(-n2ccc3cnc(C#CC4(O)CCCC4)cc32)n1 | 2.83
* CC(O)(C#Cc1cc2c(cn1)c(C1CCCN(CCC(F)(F)F)C1)cn2-c1nc(N)ncc1F)C1CC1 (centres unmarked) | 3.00
* CC(C)(O)CCc1cn(-c2ccnc(N)n2)c2cc(C#CC3(O)CCCC3)ncc12 | 3.26
* CN(C)C(=O)c1cn(-c2ccnc(N)n2)c2cc(C#CC(C)(C)O)ncc12 | 3.70
* CC(C)(O)C#Cc1cc2c(ccn2-c2ccnc(N)n2)cn1 | 1.63
* [2H]C([2H])([2H])C(O)(C#Cc1cc2c(cn1)c(C1CCN(Cc3ccccc3)CC1)cn2-c1ccnc(N)n1)C([2H])([2H])[2H] | 1.69
* CCCCOCc1cn(-c2ccnc(N)n2)c2cc(C#CC(C)(C)O)ncc12 | 2.67

====

Target: Recombinant Human NF-kappaB-Inducing Kinase (NIK/MAP3K14) (Homo sapiens, UniProt Q99558)
Sequence (Q99558 whole entry): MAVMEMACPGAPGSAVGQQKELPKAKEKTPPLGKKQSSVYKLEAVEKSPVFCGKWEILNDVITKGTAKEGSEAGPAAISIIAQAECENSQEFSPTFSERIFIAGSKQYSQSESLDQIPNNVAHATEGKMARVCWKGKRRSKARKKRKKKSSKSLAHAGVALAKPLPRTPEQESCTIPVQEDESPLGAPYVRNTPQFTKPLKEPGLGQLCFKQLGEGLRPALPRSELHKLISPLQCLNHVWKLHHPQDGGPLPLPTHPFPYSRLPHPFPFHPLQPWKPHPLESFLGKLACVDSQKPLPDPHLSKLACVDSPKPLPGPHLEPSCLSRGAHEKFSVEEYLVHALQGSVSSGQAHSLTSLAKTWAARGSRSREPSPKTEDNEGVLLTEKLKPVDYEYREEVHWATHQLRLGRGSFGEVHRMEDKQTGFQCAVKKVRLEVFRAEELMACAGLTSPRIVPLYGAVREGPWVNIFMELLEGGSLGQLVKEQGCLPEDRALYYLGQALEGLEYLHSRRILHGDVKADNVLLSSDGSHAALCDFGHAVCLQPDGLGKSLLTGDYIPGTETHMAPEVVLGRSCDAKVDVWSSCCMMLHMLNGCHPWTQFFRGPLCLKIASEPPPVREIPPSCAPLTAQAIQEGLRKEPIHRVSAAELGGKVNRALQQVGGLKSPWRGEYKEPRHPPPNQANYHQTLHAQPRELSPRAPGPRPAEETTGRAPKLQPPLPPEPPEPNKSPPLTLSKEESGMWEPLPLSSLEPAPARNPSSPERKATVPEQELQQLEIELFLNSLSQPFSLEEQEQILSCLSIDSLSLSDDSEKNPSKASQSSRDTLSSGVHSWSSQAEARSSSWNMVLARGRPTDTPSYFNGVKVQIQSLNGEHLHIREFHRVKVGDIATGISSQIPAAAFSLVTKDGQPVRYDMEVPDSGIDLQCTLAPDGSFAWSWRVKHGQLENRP
Experiment: Biological Assay A2: inhibition of auto-phosphorylation of recombinant human NIK/MAP3K14 (AlphaScreen)
Type: biochemical
Details: 25 microM ATP, 0.2 nM NIK/MAP3K14, 1 h at 25° C., averaged over all batches, read-out: Alpha-Screen IC50
Description: Inhibition of Auto-Phosphorylation of Recombinant Human NF-kappaB-Inducing Kinase (NIKIMAP3K14) Activity (AlphaScreen®) NIK/MAP3K14 auto-phosphorylation activity was measured using the AlphaScreen® (ascreen) format (Perkin Elmer). All compounds tested were dissolved in dimethyl sulfoxide (DMSO) and further dilutions were made in assay buffer. […] Protein A Acceptor and Glutathione-Donor beads were added before reading using an EnVision® Multilabel Plate Reader (Perkin Elmer). […]
# if measured IC50 < 30 nM: yes (1)  # else: no (0)

- CN1CCC(c2cn(-c3ccnc(N)n3)c3cc(C#CC(C)(O)C4CC4)ncc23)CC1 (centres unmarked) [Compound 41]: no (0)
- CNC(=O)c1cn(-c2ccnc(N)n2)c2cc(C#CC(C)(C)O)ncc12 [Compound 15]: no (0)
- COCCc1cn(-c2ccnc(N)n2)c2cc(C#CC(C)(C)O)ncc12 [Compound 27]: no (0)
- CC(O)(C#Cc1cc2c(ccn2-c2ccnc(N)n2)cn1)c1nccs1 (centres unmarked) [Compound 5]: yes (1)
- CC(O)(C#Cc1cc2c(cn1)c(C1CCN(CCC(F)(F)F)CC1)cn2-c1nc(N)ncc1F)C1CC1 (centres unmarked) [Compound 46]: no (0)
- CC(O)(C#Cc1cc2c(cn1)c(C1(F)CN(C3CC3)C1)cn2-c1ccnc(N)n1)C1CC1 (centres unmarked) [Compound 42]: no (0)
- CC(O)(C#Cc1cc2c(cn1)c(C1CCN(CCCF)CC1)cn2-c1nc(N)ncc1F)C1CC1 (centres unmarked) [Compound 47]: no (0)
- CC(C)(O)C#Cc1cc2c(cn1)c(CC#N)cn2-c1ccnc(N)n1 [Compound 20]: yes (1)

====

test system: P-IKKα levels in L363 cells; experiment: Biological Assay B: effect of compounds on P-IKKα levels in L363 cells; type: cell-based; details: Homo sapiens, L-363, BAFF stimulated, 2 hr treatment, averaged over all batches, read-out: IKKα Cellular IC50
We begin with a simple list: items and their reported log10 IC50.
metric.name: log10 IC50 (log10 of the value in µM)

- Nc1ncc(Cl)c(-n2ccc3cnc(C#CC4(O)CC4)cc32)n1 [Compound 8]: -0.98
- CN1CCC(c2cn(-c3ccnc(N)n3)c3cc(C#CC4(O)CCCC4)ncc23)CC1 [Compound 24]: -0.74
- CCc1cn(-c2ccnc(N)n2)c2cc(C#CC(C)(C)O)ncc12 [Compound 21]: -2.02
- CC(C)(O)C#Cc1cc2c(cn1)c(CCC(C)(C)O)cn2-c1ccnc(N)n1 [Compound 31]: -1.10
- CC(C)(O)C#Cc1cc2c(cn1)c(C#N)cn2-c1ccnc(N)n1 [Compound 19]: -0.11
- CC(CO)c1cn(-c2ccnc(N)n2)c2cc(C#CC(C)(C)O)ncc12 (stereo not drawn) [Compound 16]: -1.25
- CC(C)(O)C#Cc1cc2c(cn1)c(CCC#N)cn2-c1ccnc(N)n1 [Compound 36]: -1.74
- CN(C)C(=O)c1cn(-c2ccnc(N)n2)c2cc(C#CC(C)(C)O)ncc12 [Compound 2]: 0.03
- CNC(=O)c1cn(-c2ccnc(N)n2)c2cc(C#CC(C)(C)O)ncc12 [Compound 15]: 0.12
- COCc1cn(-c2ccnc(N)n2)c2cc(C#CC(C)(C)O)ncc12 [Compound 18]: -1.25
- CC(C)(O)C#Cc1cc2c(cn1)c(C(N)=O)cn2-c1ccnc(N)n1 [Compound 14]: 0.09
- Nc1nccc(-n2ccc3cnc(C#CC4(O)CC4)cc32)n1 [Compound 4]: -2.14
- CNc1nccc(-n2ccc3cnc(C#CC(C)(C)O)cc32)n1 [Compound 6]: -0.69
- N#CCCc1cn(-c2ccnc(N)n2)c2cc(C#CC3(O)CCCC3)ncc12 [Compound 37]: -0.92
- CC(C)(O)C#Cc1cc2c(cn1)c(CCC(C)(C)O)cn2-c1nc(N)ncc1F [Compound 33]: -0.59
- CC(C)(O)C#Cc1cc2c(cn1)c(CC#N)cn2-c1ccnc(N)n1 [Compound 20]: -1.26
- CC(C)(O)C#Cc1cc2c(cn1)c(/C=C/C#N)cn2-c1ccnc(N)n1 [Compound 35]: -0.79
- CC(C)(O)C#Cc1cc2c(cn1)c(CCCO)cn2-c1nc(N)ncc1F [Compound 29]: -1.49

# credit: patent US10005773B2
